meta.source: patent US20250064941A1

# target_entity: human Siglec-2/CD22 protein (Homo sapiens, UniProt P20273)
# Sequence (P20273 20-847): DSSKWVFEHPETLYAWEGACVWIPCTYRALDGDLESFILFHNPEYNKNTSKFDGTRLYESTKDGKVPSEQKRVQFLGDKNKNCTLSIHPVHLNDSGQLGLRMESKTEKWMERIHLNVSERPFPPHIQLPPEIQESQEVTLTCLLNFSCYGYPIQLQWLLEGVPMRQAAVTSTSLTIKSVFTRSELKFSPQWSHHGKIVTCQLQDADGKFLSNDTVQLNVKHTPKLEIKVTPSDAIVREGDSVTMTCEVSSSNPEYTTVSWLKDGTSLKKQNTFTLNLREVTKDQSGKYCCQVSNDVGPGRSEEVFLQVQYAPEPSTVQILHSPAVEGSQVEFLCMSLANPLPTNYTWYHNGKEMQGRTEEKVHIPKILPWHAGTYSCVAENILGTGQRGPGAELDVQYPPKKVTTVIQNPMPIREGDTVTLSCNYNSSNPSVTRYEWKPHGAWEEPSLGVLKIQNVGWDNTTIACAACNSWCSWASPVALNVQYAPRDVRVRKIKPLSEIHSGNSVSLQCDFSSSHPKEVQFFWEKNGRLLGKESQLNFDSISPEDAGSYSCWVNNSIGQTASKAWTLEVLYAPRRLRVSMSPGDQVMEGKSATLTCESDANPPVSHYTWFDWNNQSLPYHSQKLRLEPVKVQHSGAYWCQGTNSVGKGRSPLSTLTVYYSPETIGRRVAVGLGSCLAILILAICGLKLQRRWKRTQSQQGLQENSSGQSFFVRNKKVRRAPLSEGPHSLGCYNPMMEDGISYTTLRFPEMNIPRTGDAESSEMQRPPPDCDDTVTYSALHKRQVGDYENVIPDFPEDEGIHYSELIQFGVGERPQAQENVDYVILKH
# run_description: SPR binding affinity to human CD22
# condition_details: steady-state analysis
pKd: −log10 of the molar value.
reported_property: pKd

| compound | measured_result |
| --- | --- |
| C#CCOc1ccc(CO[C@]2(C(=O)O)C[C@H](O)[C@@H](NC(=O)CO)[C@H]([C@H](O)[C@H](O)CNC(=O)Cc3ccc(-c4ccc(O)cc4)c(Cl)c3)O2)cc1 [Compound 47] | > 6.00 |
| C#CCOCCCCCCO[C@]1(C(=O)O)C[C@H](O)[C@@H](NC(=O)CC2CC2)[C@H]([C@H](O)[C@H](O)CNC(=O)Cc2ccc(Cl)cc2)O1 [Compound 88] | 5.00 to 6.00 |
| C#CCNC(=O)CCOCCOCCO[C@]1(c2nn[nH]n2)C[C@H](O)[C@@H](NC(=O)CO)[C@H]([C@H](O)[C@H](O)CNC(=O)Cc2ccc(Cl)cc2)O1 [Compound 226] | < 5.00 |
| C#CCOCCCCCCO[C@]1(C(=O)O)C[C@H](O)[C@@H](NCC(=O)N(C)C)[C@H]([C@H](O)[C@H](O)CNC(=O)Cc2ccc(Cl)cc2)O1 [Compound 180] | < 5.00 |

# input Entry C#CCOCCOCCO[C@]1(C(=O)O)C[C@H](O)[C@@H](NC(=O)CO)[C@H]([C@H](O)[C@H](O)CNC(=O)Cc2ccc3c(c2)NC(=O)C3)O1 [Compound 12] has what pKd?
# output 5.00 to 6.00
